# subject.of.test: recombinant human SAE enzyme (Homo sapiens, UniProt Q9UBT2)
# Sequence (Q9UBT2 1-640): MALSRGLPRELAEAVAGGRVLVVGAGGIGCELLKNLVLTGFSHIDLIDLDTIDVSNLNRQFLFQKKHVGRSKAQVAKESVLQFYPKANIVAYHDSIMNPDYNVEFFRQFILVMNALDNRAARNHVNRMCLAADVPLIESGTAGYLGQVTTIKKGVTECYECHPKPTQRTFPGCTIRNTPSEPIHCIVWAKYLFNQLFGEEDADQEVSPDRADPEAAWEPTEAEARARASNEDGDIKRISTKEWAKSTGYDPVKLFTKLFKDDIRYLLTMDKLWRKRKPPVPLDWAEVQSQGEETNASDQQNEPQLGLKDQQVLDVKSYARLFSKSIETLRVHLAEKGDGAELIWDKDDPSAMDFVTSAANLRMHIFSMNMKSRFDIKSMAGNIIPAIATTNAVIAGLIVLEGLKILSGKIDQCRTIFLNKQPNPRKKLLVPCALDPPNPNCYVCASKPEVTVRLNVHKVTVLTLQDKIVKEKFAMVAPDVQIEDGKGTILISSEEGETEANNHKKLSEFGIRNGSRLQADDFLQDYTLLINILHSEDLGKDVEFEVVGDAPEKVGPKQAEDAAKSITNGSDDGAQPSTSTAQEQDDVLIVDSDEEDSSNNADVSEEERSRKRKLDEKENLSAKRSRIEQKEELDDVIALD
# Sequence (Q9UBE0 1-346 partner): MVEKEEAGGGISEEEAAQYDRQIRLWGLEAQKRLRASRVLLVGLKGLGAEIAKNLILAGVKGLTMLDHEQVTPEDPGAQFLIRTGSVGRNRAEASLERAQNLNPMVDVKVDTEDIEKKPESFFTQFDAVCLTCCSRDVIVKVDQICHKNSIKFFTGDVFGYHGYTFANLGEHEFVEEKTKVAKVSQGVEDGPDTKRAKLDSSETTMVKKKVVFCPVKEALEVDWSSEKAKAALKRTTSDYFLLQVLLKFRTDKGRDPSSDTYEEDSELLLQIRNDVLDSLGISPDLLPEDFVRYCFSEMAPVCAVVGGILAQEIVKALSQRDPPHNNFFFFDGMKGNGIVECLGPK
# test.method.notes: SAE HTRF Enzyme Assay
# experimental.context: class symbols A-C
pIC50: −log10 of the molar value.
measured.endpoint: pIC50

# compound, subject.of.test, measured.endpoint, value.reported
measured = [
    ("NS(=O)(=O)OC[C@H]1C[C@@H](Nc2ncncc2C(=O)c2ccn(Cc3ccc(F)c(Br)c3)c2)[C@@H](F)[C@@H]1O [Compound I-143]", "recombinant human SAE enzyme (Homo sapiens, UniProt Q9UBT2)", "pIC50", "> 8.00"),
    ("NS(=O)(=O)OC[C@H]1C[C@@H](Nc2ncncc2C(=O)c2ccn(Cc3cc4ccccc4o3)c2)[C@@H](F)[C@@H]1O [Compound I-110]", "recombinant human SAE enzyme (Homo sapiens, UniProt Q9UBT2)", "pIC50", "> 8.00"),
    ("Cc1cc(Cn2ccc(C(=O)c3cncnc3N[C@@H]3C[C@H](COS(N)(=O)=O)[C@@H](O)C3)n2)no1 [Compound I-348]", "recombinant human SAE enzyme (Homo sapiens, UniProt Q9UBT2)", "pIC50", "> 8.00"),
    ("NS(=O)(=O)OC[C@H]1C[C@@H](Nc2ncncc2C(=O)c2ccn(Cc3ccccc3C(F)(F)F)n2)C[C@@H]1O [Compound I-226]", "recombinant human SAE enzyme (Homo sapiens, UniProt Q9UBT2)", "pIC50", "7.00 to 8.00"),
    ("NS(=O)(=O)OC[C@H]1C[C@@H](Nc2ncncc2C(=O)c2ccn(CC3CCOCC3)c2)[C@@H](F)[C@@H]1O [Compound I-222]", "recombinant human SAE enzyme (Homo sapiens, UniProt Q9UBT2)", "pIC50", "7.00 to 8.00"),
    ("Cn1cccc(Cn2ccc(C(=O)c3cncnc3N[C@@H]3C[C@H](COS(N)(=O)=O)[C@@H](O)C3)n2)c1=O [Compound I-80]", "recombinant human SAE enzyme (Homo sapiens, UniProt Q9UBT2)", "pIC50", "> 8.00"),
    ("NS(=O)(=O)OC[C@H]1C[C@@H](Nc2ncncc2C(=O)c2ccn(Cc3cc(F)cc(F)c3)n2)C[C@@H]1O [Compound I-260]", "recombinant human SAE enzyme (Homo sapiens, UniProt Q9UBT2)", "pIC50", "> 8.00"),
]

--- query ---
Value lookup for pIC50; key = NS(=O)(=O)OC[C@H]1C[C@@H](Nc2ncncc2C(=O)c2ccn(Cc3ccc(Cl)c(Cl)c3)n2)C[C@@H]1O [Compound I-58]
> 8.00

Origin of measurements: patent US9695154B2
